These entries and their values trace back to BindingDB's records for doi:10.1021/cb8001039.

# Target Desc: Gag-Pol polyprotein [613-1167,R896S,E946D,S1117V]/[618-1043,R896S,E946D] (Human immunodeficiency virus 2, UniProt P04584, E946D/R896S/S1117V)
# Construct: 613-1167; 618-1043
# Sequence (P04584 613-1167, looked up, stated change not applied): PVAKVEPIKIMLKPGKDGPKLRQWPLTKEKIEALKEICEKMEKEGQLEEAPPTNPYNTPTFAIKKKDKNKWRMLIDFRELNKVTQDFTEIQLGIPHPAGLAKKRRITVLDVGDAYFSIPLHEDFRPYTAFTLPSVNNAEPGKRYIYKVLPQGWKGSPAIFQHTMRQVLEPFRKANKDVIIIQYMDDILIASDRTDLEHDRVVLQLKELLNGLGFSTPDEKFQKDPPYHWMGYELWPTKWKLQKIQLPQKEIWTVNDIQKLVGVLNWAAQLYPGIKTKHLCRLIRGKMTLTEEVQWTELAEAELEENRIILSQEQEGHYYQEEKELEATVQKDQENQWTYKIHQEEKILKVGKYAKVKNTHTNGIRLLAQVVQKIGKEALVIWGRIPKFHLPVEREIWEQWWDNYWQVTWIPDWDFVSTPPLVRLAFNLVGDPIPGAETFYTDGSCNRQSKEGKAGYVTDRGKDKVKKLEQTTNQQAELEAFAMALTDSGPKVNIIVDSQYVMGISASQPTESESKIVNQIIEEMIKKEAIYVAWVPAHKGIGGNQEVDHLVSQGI
# Sequence (P04584 618-1043, looked up, stated change not applied): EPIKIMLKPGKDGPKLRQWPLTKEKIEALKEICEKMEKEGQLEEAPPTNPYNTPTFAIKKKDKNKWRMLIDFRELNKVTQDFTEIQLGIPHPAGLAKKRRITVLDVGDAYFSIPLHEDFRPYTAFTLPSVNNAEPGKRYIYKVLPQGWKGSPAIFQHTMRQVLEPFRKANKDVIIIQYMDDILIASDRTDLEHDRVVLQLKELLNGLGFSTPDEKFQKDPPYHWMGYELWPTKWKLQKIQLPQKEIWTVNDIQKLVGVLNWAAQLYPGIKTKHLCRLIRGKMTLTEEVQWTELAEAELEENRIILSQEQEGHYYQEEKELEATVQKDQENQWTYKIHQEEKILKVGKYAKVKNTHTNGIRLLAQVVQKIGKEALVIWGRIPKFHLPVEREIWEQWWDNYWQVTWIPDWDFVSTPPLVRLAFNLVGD
# Protocol: FRET-Based RNase H Assay
# Cond: pH 8; 20 °C
Assay Metric: IC50 (µM)
// return numeric value only (unit: µM, not printed)

Query: Quick one: IC50 for NC(=O)c1c(N)sc2c1CCCCC2 ?
Response: 2.5

Query: Recorded IC50 of Cc1sc(NC(=O)c2ccco2)c(C(N)=O)c1C , please.
Response: 5
